target: T1, HLA-A0201 on the surface of T2 cells (human); test: T2 cell peptide loading, flow cytometry with anti-HLA-A*02:01 FITC antibody, peptide 100 uM
T1 construct: MHC class I molecule on T2 cells; surface HLA-A*02:01 was read with an anti-HLA-A*02:01 FITC monoclonal antibody after overnight loading with peptide
measure-name: Mean fluorescence intensity

>  <binder>
TMAFLIFNV (Made by solid phase synthesis) [mutant polypeptide's variant TMAFLIFNV (SEQ ID NO: 6)]

>  <reported-value>
677

$$$$
>  <binder>
TLAFLIFNI (Made by solid phase synthesis, purity >90% by HPLC) [mutant polypeptide TLAFLIFNI (SEQ ID NO: 1)]

>  <reported-value>
643

$$$$
>  <binder>
TMAFLIFNL (Made by solid phase synthesis) [mutant polypeptide's variant TMAFLIFNL (SEQ ID NO: 5)]

>  <reported-value>
690

$$$$
>  <binder>
TMAFLIFNI (Made by solid phase synthesis) [mutant polypeptide's variant TMAFLIFNI (SEQ ID NO: 2)]

>  <reported-value>
660

$$$$
